Target: T1, human CD33 (human, UniProt P20138 18-259, limits assumed)
T1 construct: Human CD33 immobilized on the BLI sensor tip or the BIAcore C1 chip; also called Siglec-3
T1 sequence (P20138 18-259 limits assumed): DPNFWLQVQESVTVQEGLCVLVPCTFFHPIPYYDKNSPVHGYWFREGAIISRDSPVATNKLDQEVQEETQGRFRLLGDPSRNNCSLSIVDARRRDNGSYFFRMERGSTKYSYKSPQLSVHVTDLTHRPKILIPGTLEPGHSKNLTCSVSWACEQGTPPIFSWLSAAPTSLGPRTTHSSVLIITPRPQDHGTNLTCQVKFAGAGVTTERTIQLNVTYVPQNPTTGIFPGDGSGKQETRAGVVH
Experiment: BLI (ForteBio), Fab 100 nM on immobilized CD33
Method: The affinities (KD) of the humanized antibodies for human CD33 were measured for each antibody by BioLayer Interferometry in a ForteBio assay according to standard techniques (Estep et al. (2013) MAbs 5(2): 270-8). […] The assay was carried out at room temperature.
Kd reference
Field: numeric (nM). Do not append units.

Worked cases, answers included:
>  <binder>
AB-H64 (antibody, V domains shown, Humanized variant of murine 2F5.1; also called parental humanized antibody) VH: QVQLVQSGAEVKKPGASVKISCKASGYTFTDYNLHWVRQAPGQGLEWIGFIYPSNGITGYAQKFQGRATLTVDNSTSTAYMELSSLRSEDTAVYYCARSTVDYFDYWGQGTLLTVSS VL: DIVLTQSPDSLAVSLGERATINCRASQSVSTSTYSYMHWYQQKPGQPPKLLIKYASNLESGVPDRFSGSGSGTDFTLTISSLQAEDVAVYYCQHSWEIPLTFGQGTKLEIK

>  <unit-of-measurement>
nM

>  <Kd>
4.08

$$$$
>  <binder>
AB-H63 (antibody, V domains shown, Humanized variant of murine 2F5.1) VH: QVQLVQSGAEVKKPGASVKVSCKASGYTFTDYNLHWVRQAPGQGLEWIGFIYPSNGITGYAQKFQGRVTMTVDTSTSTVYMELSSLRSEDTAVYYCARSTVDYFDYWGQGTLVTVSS VL: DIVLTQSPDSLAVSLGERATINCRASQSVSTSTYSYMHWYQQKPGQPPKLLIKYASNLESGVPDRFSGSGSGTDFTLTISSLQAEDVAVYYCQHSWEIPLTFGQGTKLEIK

>  <unit-of-measurement>
nM

>  <Kd>
4.07

$$$$

Qu. Supply reported Kd belonging to this binder: AB-H15 (antibody, V domains shown, Humanized variant of murine 2F5.1) VH: QVQLVQSGAEVKKPGASVKISCKASGYTFTDYNLHWVRQAPGQGLEWIGFIYPSNGITGYAQKFQGRATLTVDTSTSTAYMELSSLRSEDTAVYYCARSTVDYFDYWGQGTLLTVSS VL: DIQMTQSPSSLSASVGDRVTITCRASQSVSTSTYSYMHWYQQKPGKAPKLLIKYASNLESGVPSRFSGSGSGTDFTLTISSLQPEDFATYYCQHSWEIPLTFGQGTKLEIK
Ans. 5.45

Qu. Note down Kd recorded for AB-H65 (antibody, V domains shown, Humanized variant of murine 2F5.1) VH: QVQLVQSGAEVKKPGASVKVSCKASGYTFTDYNLHWVRQAPGQGLEWMGFIYPSNGITGYAQKFQGRVTMTRDTSTSTVYMELSSLRSEDTAVYYCARSTVDYFDYWGQGTTVTVSS VL: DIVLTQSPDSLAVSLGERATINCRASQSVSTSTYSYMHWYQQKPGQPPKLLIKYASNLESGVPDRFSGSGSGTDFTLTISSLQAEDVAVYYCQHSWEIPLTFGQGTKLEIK
Ans. 8.57

Value source: patent US20210139581A1
